# assayed.system: c-Kit(V654A) (Homo sapiens, UniProt P10721, V654A)
# Construct: amino acids 544-end containing the V654A mutation; GST (N)
# Sequence (P10721 544-976 V654A): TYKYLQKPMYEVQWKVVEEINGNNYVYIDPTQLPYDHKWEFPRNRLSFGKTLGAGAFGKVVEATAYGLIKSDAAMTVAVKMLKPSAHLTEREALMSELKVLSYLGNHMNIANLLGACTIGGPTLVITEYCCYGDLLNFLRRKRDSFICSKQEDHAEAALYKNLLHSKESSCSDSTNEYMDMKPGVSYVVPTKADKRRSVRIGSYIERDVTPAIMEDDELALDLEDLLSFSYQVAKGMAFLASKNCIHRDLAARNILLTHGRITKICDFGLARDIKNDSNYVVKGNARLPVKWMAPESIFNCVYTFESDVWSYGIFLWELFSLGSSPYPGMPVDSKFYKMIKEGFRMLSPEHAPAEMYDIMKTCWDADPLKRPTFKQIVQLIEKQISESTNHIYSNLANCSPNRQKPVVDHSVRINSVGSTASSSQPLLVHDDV
# experiment: c-Kit(V654A) assay
# measurement.conditions: recombinant human c-Kit aa 544-end, 200 μM ATP, 1.4E-06 means 1.4×10^−6, read-out: Inhibition (IC50) of c-KIT (V654A)
Structures can show the parent of a compound that is named as a salt.
value.kind: IC50 (nM)

1) O=C(c1ccc(-n2cc(-c3cc4cc(F)ccc4[nH]c3=O)nn2)cc1)N1CCN[C@@H](CO)C1 [A314, hydrochloride]; 72
2) CN1CCC(N(C)C(=O)c2ccc(-n3cc(-c4cc5ccccc5[nH]c4=O)nn3)cc2)CC1; 76

I: O=C(c1ccc(-n2cc(-c3cc4cc(F)ccc4[nH]c3=O)nn2)cc1)N1CC2(COC2)C1
II: CN1CCN(C(=O)c2ccc(-n3cc(-c4cc5cc(Cl)ccc5[nH]c4=O)nn3)cc2)CC1=O
Ask | Which numeric IC50 is bigger, that of I or that of II ? # reply format: chosen label
Reply | I

A: CN1CC[C@H](Oc2ccc(-n3cc(-c4cc5cc(F)ccc5[nH]c4=O)nn3)cc2)C1
B: CO[C@@H](C)C(=O)N(C)c1ccc(-n2cc(-c3cc4cc(F)ccc4[nH]c3=O)nn2)cc1
C: O=c1[nH]c2ncccc2cc1-c1cn(-c2ccccc2)nn1
D: N[C@@H]1[C@H]2CN(C(=O)c3ccc(-n4cc(-c5cc6cc(F)ccc6[nH]c5=O)nn4)cc3)C[C@@H]12
Ask | Order by IC50, ascending. Your answer should be the labels, listed in the requested order.
Reply | B, A, D, C
(B: 16 nM, A: 31 nM, D: 120 nM, C: 430 nM)

====

# assayed.system: c-Kit(V654A) (Homo sapiens, UniProt P10721, V654A)
# Construct: amino acids 544-end containing the V654A mutation; GST (N)
# experiment: c-Kit(V654A) assay
# measurement.conditions: recombinant human c-Kit aa 544-end, 200 μM ATP, 1.4E-06 means 1.4×10^−6, read-out: Inhibition (IC50) of c-KIT (V654A)
# Description: c-Kit(V654A) (N-terminal GST-tagged, recombinant human c-Kit, amino acids 544-end containing the V654A mutation) is incubated with 8 mM MOPS pH 7.0, 0.2 mM EDTA, 250 μM GGMEDIYEFMGGKKK, 10 mM MgAcetate and [gamma-33P-ATP] (specific activity approx. 500 cpm/pmol, concentration 200 μM). The reaction is initiated by the addition of the MgATP mix. After incubation for 40 minutes at room temperature, the reaction is stopped by the addition of 3% phosphoric acid solution. […]
Structures can show the parent of a compound that is named as a salt.
value.kind: IC50 (nM)

A: O=C(c1ccc(-n2cc(-c3cc4ccc(F)cc4[nH]c3=O)nn2)cc1)N1CCOCC1 [A83]
B: O=C(c1ccc(-n2cc(-c3cc4cc(Cl)ccc4[nH]c3=O)nn2)cc1)N1CC[C@@H](F)C1 [A270]
Ask | Compare A and B and name the one whose reported IC50 is smaller. # reply format: chosen label
Reply | A
(A: 10 nM, B: 26 nM)

P: COC1CCN(C(=O)c2ccc(-n3cc(-c4cc5cc(F)ccc5[nH]c4=O)nn3)cc2)CC1 [A190]
Q: CN[C@H]1CCN(C(=O)c2ccc(-n3cc(-c4cc5cc(F)ccc5[nH]c4=O)nn3)cc2)C1 [A312, hydrochloride]
Ask | Which numeric IC50 is bigger, that of P or that of Q ? # reply format: chosen label
Reply | Q
(Q: 61 nM, P: 9.7 nM)

====

# assayed.system: c-Kit(V654A) (Homo sapiens, UniProt P10721, V654A)
# Construct: amino acids 544-end containing the V654A mutation; GST (N)
# experiment: c-Kit(V654A) assay
# measurement.conditions: recombinant human c-Kit aa 544-end, 200 μM ATP, 1.4E-06 means 1.4×10^−6, read-out: Inhibition (IC50) of c-KIT (V654A)
value.kind: IC50 (nM)

Some solved cases for reference:
1) CN1CCN(C(=O)c2ccc(-n3cc(-c4cc5ccccc5[nH]c4=O)nn3)cc2)CC1 [A57]; 15
2) O=C(c1ccc(-n2cc(-c3cc4cc(Cl)ccc4[nH]c3=O)nn2)cc1)N1CCC2(COC2)C1 [A257]; 27
3) CN1CCC(CCOc2ccc(-n3cc(-c4cc5cc(F)ccc5[nH]c4=O)nn3)cc2)CC1 [A163]; 9.9
4) Cc1ccc2cc(-c3cn(-c4ccc(C(=O)N5CCOCC5)cc4)nn3)c(=O)[nH]c2c1 [A84]; 48
5) CC1CCCN1C(=O)c1ccc(-n2cc(-c3cc4cc(F)ccc4[nH]c3=O)nn2)cc1 (centres unmarked) [A288]; 6.5
6) O=C(c1ccc(-n2cc(-c3cc4ncccc4[nH]c3=O)nn2)cc1)N1CCOCC1 [A85]; 1300

A: CO[C@H]1CC[C@@H](Oc2ccc(-n3cc(-c4cc5cc(F)ccc5[nH]c4=O)nn3)cc2)C1 (stereo in doubt) [A355]
B: CN1CCN(C(=O)c2ccc(-n3cc(-c4cc5ccccc5[nH]c4=O)cn3)cc2)CC1 [A74]
Ask | Compare A and B and name the one whose reported IC50 is smaller. # reply format: chosen label
Reply | B
(B: 8 nM, A: 89 nM)

1: O=C(c1ccc(-n2cc(-c3cc4cc(F)ccc4[nH]c3=O)nn2)cc1)N1C[C@H]2CNC[C@H]2C1 [A308]
2: CN(C)[C@H]1CCCN(C(=O)c2ccc(-n3cc(-c4cc5ccc(F)cc5[nH]c4=O)nn3)cc2)C1 [A336]
3: CC(C)(O)c1ccc(-n2cc(-c3cc4ccccc4[nH]c3=O)nn2)cc1 [A36]
Ask | Given 3 compounds, produce a descending ranking by IC50. Your answer should be the labels, listed in the requested order.
Reply | 2, 3, 1
(2: 180 nM, 3: 29 nM, 1: 10 nM)

====

# assayed.system: PDGFRalpha(V561D) (Homo sapiens, UniProt P16234, V561D)
# Construct: recombinant human PDGFRalpha, amino acids 550end containing the V561 D mutation; 6His (N)
# Sequence (P16234 550-1089 V561D): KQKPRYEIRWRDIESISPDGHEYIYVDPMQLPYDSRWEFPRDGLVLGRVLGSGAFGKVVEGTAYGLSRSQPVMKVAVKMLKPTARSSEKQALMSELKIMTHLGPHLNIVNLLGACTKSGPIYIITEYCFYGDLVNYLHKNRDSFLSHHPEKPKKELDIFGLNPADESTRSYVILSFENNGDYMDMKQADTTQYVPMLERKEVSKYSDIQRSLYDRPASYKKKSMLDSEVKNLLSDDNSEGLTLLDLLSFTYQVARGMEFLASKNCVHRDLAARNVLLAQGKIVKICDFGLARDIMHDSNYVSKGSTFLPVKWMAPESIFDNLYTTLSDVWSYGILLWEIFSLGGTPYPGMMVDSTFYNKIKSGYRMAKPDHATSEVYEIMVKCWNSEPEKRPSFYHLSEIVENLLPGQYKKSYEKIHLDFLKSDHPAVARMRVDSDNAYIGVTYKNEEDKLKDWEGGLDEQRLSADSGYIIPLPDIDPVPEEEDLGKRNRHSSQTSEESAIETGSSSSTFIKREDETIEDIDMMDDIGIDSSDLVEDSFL
# experiment: PDGFRalpha(V561D) assay
# measurement.conditions: recombinant human PDGFRalpha aa 550-end, 200 μM ATP, 1.4E-06 means 1.4×10^−6, read-out: Inhibition (IC50) of PDGFRα (V561D)
value.kind: IC50 (nM)

Some solved cases for reference:
1) O=C(c1ccc(-n2cc(-c3cc4cc(F)ccc4[nH]c3=O)nn2)cc1)N1CCOC[C@H]1CO; 37
2) CO[C@@H]1CCN(C(=O)c2ccc(-n3cc(-c4cc5cc(F)ccc5[nH]c4=O)nn3)cc2)C1; 18
3) O=C(c1ccc(-n2cc(-c3cc4cc(F)c(F)cc4[nH]c3=O)nn2)cc1)N1CCC(OCCN2CCCC2)C1 (centres unmarked); 580
4) O=C(O)c1ccc(-n2cc(-c3cc4cccnc4[nH]c3=O)nn2)cc1; 110
5) CO[C@H]1CCCN(C(=O)c2ccc(-n3cc(-c4cc5cc(F)ccc5[nH]c4=O)nn3)cc2)C1; 93

A: CN(C(=O)C1CCOCC1)c1ccc(-n2cc(-c3cc4cc(F)ccc4[nH]c3=O)nn2)cc1
B: CN1CCN(CCOc2ccc(-n3cc(-c4cc5ccccc5[nH]c4=O)nn3)cc2)CC1
Ask | Which numeric IC50 is bigger, that of A or that of B ? # reply format: chosen label
Reply | A
(A: 1500 nM, B: 4 nM)

I: O=C(c1ccc(-n2cc(-c3cc4cc(F)ccc4[nH]c3=O)nn2)cc1)C1CCNCC1
II: O=c1[nH]c2ccc(F)cc2cc1-c1cn(-c2ccc(S(=O)(=O)N3CCNCC3)cc2)nn1
III: O=C(c1ccc(-n2cc(-c3cc4cc(F)ccc4[nH]c3=O)nn2)cc1)N1C[C@H](O)CO1
Ask | Order by IC50, ascending. Your answer should be the labels, listed in the requested order.
Reply | I, III, II

P: O=c1[nH]c2ccccc2cc1-c1cn(-c2cnc(N3CCNCC3)nc2)nn1
Q: COCCOC[C@H]1CCN(C(=O)c2ccc(-n3cc(-c4cc5cc(F)c(F)cc5[nH]c4=O)nn3)cc2)C1
R: CN1CCN(C(=O)c2ccc(-n3cc(-c4cc5cnccc5[nH]c4=O)nn3)cc2)CC1
S: O=C(c1ccc(-n2cc(-c3cc4ccc(Cl)cc4[nH]c3=O)nn2)cc1)N1CCOCC1
T: O=C(NC1COC1)c1ccc(-n2cc(-c3cc4cc(F)ccc4[nH]c3=O)nn2)cc1
Ask | Order by IC50, ascending. Your answer should be the labels, listed in the requested order.
Reply | S, R, P, Q, T

a: O=C(c1ccc(-n2cc(-c3cc4ccccc4[nH]c3=O)cn2)cc1)N1CCNCC1
b: O=C1COCCN1c1ccc(-n2cc(-c3cc4ccccc4[nH]c3=O)nn2)cc1
Ask | Which numeric IC50 is bigger, that of a or that of b ? # reply format: chosen label
Reply | a
